Catalogue of binders with associated kon
# SUBJECT_OF_TEST: T1, recombinant human RON SEMA and PSI domains (human, UniProt Q04912 25-571)
# T1 construct: domain: SEMA+PSI; Commercial protein (R&D Systems); also called rhRON SEMA+PSI; hRON SEMA+PSI
# ASSAY_COMMENT: SPR, purified Ab captured on anti-human IgG Fc, 37 C
Record the value in M⁻¹ s⁻¹, omitting the unit from your answer.

Consider the reported kon for these binders:
[[record]]
binder = "Sh29B06-78 (antibody, human IgG1, kappa, V domains shown, Humanized, human IgG1/kappa: Hu29B06 Hv4-59 D27G T30S M48I I67V Y78F IgG1 + Sh29B06 Kv2-28 Kappa) VH: QVQLQESGPGLVKPSETLSLTCTVSGGSISSGYWNWIRKPPGKKLEYIGYISYSGKTYYNPSLKSRVTISRDTSKNQFSLKLSSVTAADTAVYYCARSKYDYAMDYWGQGTLVTVSS VL: DIVMTQSPLSLPVTPGEPASISCRASEIVDNFGISFMNWYLQKPGQSPQLLIYAASNQGSGVPDRFSGSGSGTDFTLKISRVEAEDVGVYYCQQSKEVPPTFGGGTKVEIKR"
reported_value = "1e+06"

[[record]]
binder = "Sh07F01-43 (antibody, human IgG1, kappa, V domains shown, Humanized, human IgG1/kappa: Sh07F01 Hv3-48 IgG1 + HE L 07F01 Kv1-9 Kappa) VH: EVQLVESGGGLVQPGGSLRLSCAASGFDFSRHWMSWVRQAPGKGLEWVSEINPDSRTINYTPSLKERFTISRDNAKNSLYLQMNSLRAEDTAVYYCARRVRIHYYGAMDSWGQGTTVTVSS VL: DIQLTQSQSFVSTSVGDRVTVTCRASQNVGSSLVWYQQKPGKSPKTLIYSASFLYSGVPSRFSGSGSGTEFTLTISSVQPEDFADYFCQQYNNYPLTFGGGTKVEIKR"
reported_value = "1.8e+06"


Inquiry: Report kon for Sh29B06-23 (antibody, human IgG1, kappa, V domains shown, Humanized, human IgG1/kappa: Hu29B06 Hv4-59 IgG1 (CDR graft with back mutations) + Sh29B06 Kv2-28 Kappa) VH: QVQLQESGPGLVKPSETLSLTCTVSGDSITSGYWNWIRKPPGKKLEYMGYISYSGKTYYNPSLKSRITISRDTSKNQYSLKLSSVTAADTAVYYCARSKYDYAMDYWGQGTLVTVSS VL: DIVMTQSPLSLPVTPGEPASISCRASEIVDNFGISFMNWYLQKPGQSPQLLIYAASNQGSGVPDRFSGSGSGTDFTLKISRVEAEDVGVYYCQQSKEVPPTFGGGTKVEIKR
Reply text: 730000
